Measurement notes: In vitro plasma protein binding (ultrafiltration)
Format: in vitro ADME
Condition summary: up to 100 μg substance (ml plasma)^−1
// reported fraction unbound per item

Would you please look over these solved cases?
C[C@H]1O[C@@H](n2cc(F)c(=O)[nH]c2=O)[C@H](O)[C@@H]1O	> 0.96
C[C@H]1O[C@@H](n2cc(F)c(N)nc2=O)[C@H](O)[C@@H]1O	> 0.96

// switching to the query compound
Summary for this compound, O=c1[nH]cc(F)c(=O)[nH]1 [FU, 5-fluorouracil, reference compound] : fraction unbound is > 0.96

###

Measurement notes: Plasma pharmacokinetics of free drug after oral capecitabine in breast cancer patients
Type: in vivo, human
Condition summary: human, po; plasma; median, n=10; 1250 mg capecitabine m^−2 orally; read-out: AUC0−5 h
Measurement name: AUC(0-t) (ng·h/mL)

A: O=c1[nH]cc(F)c(=O)[nH]1 [FU, 5-fluorouracil, reference compound]
B: CCCCCOC(=O)Nc1nc(=O)n([C@@H]2O[C@H](C)[C@@H](O)[C@H]2O)cc1F [Capecitabine]
C: C[C@H]1O[C@@H](n2cc(F)c(=O)[nH]c2=O)[C@H](O)[C@@H]1O [DFUR, 5′-deoxy-5-fluorouridine]
D: C[C@H]1O[C@@H](n2cc(F)c(N)nc2=O)[C@H](O)[C@@H]1O [DFCR, 5′-deoxy-5-fluorocytidine]
Q: In this exercise, place the 4 compounds in ascending sequence of their recorded AUC(0-t). Your reply should list the labels following the order given in the request.
Result: A, B, C, D

###

Measurement notes: Microdialysis pharmacokinetics in the interstitium of subcutaneous connective tissue
Condition summary: human, po, 1250 mg
Measurement name: Cmax (ng/mL)

O=c1[nH]cc(F)c(=O)[nH]1 [FU, 5-fluorouracil, reference compound]	330

a: CCCCCOC(=O)Nc1nc(=O)n([C@@H]2O[C@H](C)[C@@H](O)[C@H]2O)cc1F
b: C[C@H]1O[C@@H](n2cc(F)c(N)nc2=O)[C@H](O)[C@@H]1O
Q: Kindly compare a with b and tell me which has the lower Cmax figure. To answer, give the label that identifies your chosen option.
Result: a
(a: 2700 ng/mL, b: 4370 ng/mL)

###

Measurement notes: Microdialysis pharmacokinetics in the interstitium of subcutaneous connective tissue
Condition summary: human, oral, 1250 mg m^−2, ratio AUCconnective tissue/AUCplasma, subgroup of four patients
Measurement name: Kp

Noted for CCCCCOC(=O)Nc1nc(=O)n([C@@H]2O[C@H](C)[C@@H](O)[C@H]2O)cc1F : its Kp reads > 2

###

Measurement notes: Microdialysis pharmacokinetics in the interstitium of a cutaneous metastasis (tumour)
Condition summary: human, po, 1250 mg
Measurement name: Tmax (h)

C[C@H]1O[C@@H](n2cc(F)c(N)nc2=O)[C@H](O)[C@@H]1O [DFCR, 5′-deoxy-5-fluorocytidine]	2.5
CCCCCOC(=O)Nc1nc(=O)n([C@@H]2O[C@H](C)[C@@H](O)[C@H]2O)cc1F [Capecitabine]	2.5
O=c1[nH]cc(F)c(=O)[nH]1 [FU, 5-fluorouracil, reference compound]	3

###

Measurement notes: Plasma pharmacokinetics of free drug after oral capecitabine in breast cancer patients
Assay type: in vivo, human
Condition summary: human, po; plasma, free drug; median, n=10; 1250 mg capecitabine m^−2 orally, day 1; read-out: cmax
Measurement name: Cmax (ng/mL)

a: O=c1[nH]cc(F)c(=O)[nH]1 [FU, 5-fluorouracil, reference compound]
b: C[C@H]1O[C@@H](n2cc(F)c(=O)[nH]c2=O)[C@H](O)[C@@H]1O
c: CCCCCOC(=O)Nc1nc(=O)n([C@@H]2O[C@H](C)[C@@H](O)[C@H]2O)cc1F
d: C[C@H]1O[C@@H](n2cc(F)c(N)nc2=O)[C@H](O)[C@@H]1O
Q: // rank the listed compounds by Cmax, lowest value first Could you list the labels in the order requested?
Result: a, c, b, d

###

Measurement notes: Plasma pharmacokinetics of free drug after oral capecitabine in breast cancer patients
Format: in vivo, human
Condition summary: human, oral, 1250 mg m^−2; plasma, capecitabine-naive patients, range between patients; read-out: range of cmax
Measurement name: Cmax

The molecule listed as CCCCCOC(=O)Nc1nc(=O)n([C@@H]2O[C@H](C)[C@@H](O)[C@H]2O)cc1F [Capecitabine] has a reported Cmax of 640 to 15400 ng/mL

###

Measurement notes: Plasma pharmacokinetics of free drug after oral capecitabine in breast cancer patients
Type: in vivo, human
Condition summary: human, plasma, oral, 1250 mg m^−2; one patient, day 1, slow absorption kinetics; read-out: plasma concentrations
Measurement name: concentration at 1 day

C[C@H]1O[C@@H](n2cc(F)c(=O)[nH]c2=O)[C@H](O)[C@@H]1O	≤ 4000 ng/mL

Entry C[C@H]1O[C@@H](n2cc(F)c(N)nc2=O)[C@H](O)[C@@H]1O , concentration at 1 day reported as ≤ 4000 ng/mL

###

Measurement notes: Plasma pharmacokinetics of free drug after oral capecitabine in breast cancer patients
Format: in vivo, human
Condition summary: human, oral, 1250 mg m^−2; plasma, capecitabine-naive patients, range between patients; read-out: range of tmax
Measurement name: Tmax

Item: CCCCCOC(=O)Nc1nc(=O)n([C@@H]2O[C@H](C)[C@@H](O)[C@H]2O)cc1F | Tmax: 1 to 3 h

###

Measurement notes: Microdialysis pharmacokinetics in the interstitium of a cutaneous metastasis (tumour)
Condition summary: human, po, 1250 mg
Protocol: Patients were in a supine position throughout the study period. Commercially available microdialysis probes (CMA 10®, CMA, Stockholm, Sweden) were inserted into a suitable cutaneous metastasis. […] To obtain absolute interstitial concentrations from dialysate concentrations, microdialysis probes were calibrated for in vivo recovery rates according to the retrodialysis method ([Müller et al, 1995],[1997]). […] The in vivo recovery value is calculated as: […]
Measurement name: Cmax (ng/mL)

1: C[C@H]1O[C@@H](n2cc(F)c(N)nc2=O)[C@H](O)[C@@H]1O
2: O=c1[nH]cc(F)c(=O)[nH]1 [FU, 5-fluorouracil, reference compound]
Q: Which entry has a larger number for Cmax, 1 or 2 ? Write down the label of the entry you select.
Result: 1

###

Measurement notes: Microdialysis pharmacokinetics in the interstitium of subcutaneous connective tissue
Condition summary: human, po, 1250 mg
Measurement name: Tmax (h)

O=c1[nH]cc(F)c(=O)[nH]1 [FU, 5-fluorouracil, reference compound]	2
CCCCCOC(=O)Nc1nc(=O)n([C@@H]2O[C@H](C)[C@@H](O)[C@H]2O)cc1F	2.25
C[C@H]1O[C@@H](n2cc(F)c(N)nc2=O)[C@H](O)[C@@H]1O	2.5

###

Measurement notes: Microdialysis pharmacokinetics in the interstitium of subcutaneous connective tissue
Condition summary: human, po, 1250 mg
Measurement name: half-life (min)

CCCCCOC(=O)Nc1nc(=O)n([C@@H]2O[C@H](C)[C@@H](O)[C@H]2O)cc1F	35.4
C[C@H]1O[C@@H](n2cc(F)c(N)nc2=O)[C@H](O)[C@@H]1O	45.6

###

Measurement notes: Plasma pharmacokinetics of free drug after oral capecitabine in breast cancer patients
Type: in vivo, human
Condition summary: human, po; plasma; median, n=10; 1250 mg capecitabine m^−2 orally; read-out: tmax
Measurement name: Tmax (h)

The examples below pair each entry with its known result.
C[C@H]1O[C@@H](n2cc(F)c(N)nc2=O)[C@H](O)[C@@H]1O	1.75
C[C@H]1O[C@@H](n2cc(F)c(=O)[nH]c2=O)[C@H](O)[C@@H]1O	2

I: O=c1[nH]cc(F)c(=O)[nH]1 [FU, 5-fluorouracil, reference compound]
II: CCCCCOC(=O)Nc1nc(=O)n([C@@H]2O[C@H](C)[C@@H](O)[C@H]2O)cc1F
Q: Which record would sort first by descending Tmax, I or II ? Your choice should be expressed through its label.
Result: I
(I: 2.5 h, II: 1.75 h)

This collection of values is drawn from paper PMC2376334.
